Data origin, for the record: paper PMC8998803

- TARGET_ENTITY: AF9 YEATS domain (Homo sapiens)
- Construct: DNA fragment encoding AF9 YEATS domain (residues 1–138) was amplified and cloned into the pET28a vector; made in house; host or cells: Escherichia coli BL21 (DE3)
- Sequence (P42568 1-138): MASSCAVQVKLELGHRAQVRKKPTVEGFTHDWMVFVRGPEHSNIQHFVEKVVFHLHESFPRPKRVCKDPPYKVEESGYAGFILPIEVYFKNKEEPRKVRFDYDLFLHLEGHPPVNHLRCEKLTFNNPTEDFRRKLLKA
- EXPERIMENT_NOTES: NMR chemical shift perturbation titration of 15N-labeled AF9 YEATS domain
- Assay type: binding
- CONDITION_DESCRIPTION: from dose-dependent chemical shift perturbations; ± fitting error
- Description: To further validate the results of ligand-observed fragment-based screening, we titrated these hits with the ^15N-labeled AF9 YEATS domain (Figure 1B). The backbone chemical shift assignment was retrieved from the literature. […] The binding affinity of the other hits was determined using the same approach (Table 1). […]
pKd: −log10 of the molar value.
Is pKd at least 4? Then 1.0. If not, 0.0.

Query :: Does pKd meet or surpass 4 for COCC(=O)Nc1ccc(C)c(N)c1 [Compound 1] ?
Result :: 0.0

Query :: What would you report for O=C(COCc1ccccc1O)Nc1ccc(Cl)cc1 [Compound 13] ?
Result :: 1.0

Query :: Moving on to the next compound: COCC(=O)Nc1ccc(CNC(C)=O)cc1 [Compound 8]
Result :: 0.0

Query :: // same read-out, input: O=C(COCc1ccccc1)Nc1c(F)cc(Cl)cc1F [Compound 14]
Result :: 1.0

Query :: What would you report for CNC(=O)Cc1ccc(NC(=O)COC)cc1 [Compound 7] ?
Result :: 0.0

Query :: Query COCC(=O)Nc1ccc(Cl)c(O)c1 [Compound 6] next
Result :: 1.0

Query :: Same question for COCC(=O)Nc1ccc(Cl)c(N)c1 [Compound 2] please.
Result :: 1.0

Query :: Next: COCC(=O)Nc1ccc(N)cc1C [Compound 4]
Result :: 0.0

Query :: For O=C(COCc1ccccc1)Nc1ccc(Cl)cc1 [Compound 10] then?
Result :: 1.0

Query :: Try the compound CNCC(=O)Nc1ccc(CNC(C)=O)cc1 [Compound 9]
Result :: 0.0

---

- TARGET_ENTITY: AF9 YEATS domain (Homo sapiens, UniProt P42568)
- Construct: DNA fragment encoding AF9 YEATS domain (residues 1–138) was amplified and cloned into the pET28a vector; made in house; host or cells: Escherichia coli BL21 (DE3)
- EXPERIMENT_NOTES: NMR chemical shift perturbation titration of 15N-labeled AF9 YEATS domain
- Format: binding
- CONDITION_DESCRIPTION: from dose-dependent chemical shift perturbations; ± fitting error
- Experimental: To further validate the results of ligand-observed fragment-based screening, we titrated these hits with the ^15N-labeled AF9 YEATS domain (Figure 1B). The backbone chemical shift assignment was retrieved from the literature. […] The binding affinity of the other hits was determined using the same approach (Table 1). […]
Kindly state pKd for each of the entries shown.
Please treat pKd as minus the base-10 logarithm of the molar concentration.

Query :: Given the molecule `COCC(=O)Nc1ccc(Cl)cc1` , what is its reported pKd?
Result :: 4.10

Query :: What do you get for `COCC(=O)Nc1ccc(N)cc1Cl` ?
Result :: 4.00

Query :: Continue with `O=C(COc1ccccc1)Nc1ccc(Cl)cc1`
Result :: 4.06

Query :: How about this molecule: `O=C(COCc1ccc(F)cc1)Nc1ccc(Cl)cc1`
Result :: 4.06
